molecular target: USP10 (UniProt Q14694); experiment: log2 ratio of Biotin-Ahx-Ub-VS probe labelling (fragment/DMSO); higher = less target engagement (more negative = stronger competition), active = hit call of the paper (q ≤ 0.05, log2 ratio ≤ -1); settings: compound concentration: 200 uM; treatment time: 3 h
Sequence (Q14694 whole entry, the tested form may be a part): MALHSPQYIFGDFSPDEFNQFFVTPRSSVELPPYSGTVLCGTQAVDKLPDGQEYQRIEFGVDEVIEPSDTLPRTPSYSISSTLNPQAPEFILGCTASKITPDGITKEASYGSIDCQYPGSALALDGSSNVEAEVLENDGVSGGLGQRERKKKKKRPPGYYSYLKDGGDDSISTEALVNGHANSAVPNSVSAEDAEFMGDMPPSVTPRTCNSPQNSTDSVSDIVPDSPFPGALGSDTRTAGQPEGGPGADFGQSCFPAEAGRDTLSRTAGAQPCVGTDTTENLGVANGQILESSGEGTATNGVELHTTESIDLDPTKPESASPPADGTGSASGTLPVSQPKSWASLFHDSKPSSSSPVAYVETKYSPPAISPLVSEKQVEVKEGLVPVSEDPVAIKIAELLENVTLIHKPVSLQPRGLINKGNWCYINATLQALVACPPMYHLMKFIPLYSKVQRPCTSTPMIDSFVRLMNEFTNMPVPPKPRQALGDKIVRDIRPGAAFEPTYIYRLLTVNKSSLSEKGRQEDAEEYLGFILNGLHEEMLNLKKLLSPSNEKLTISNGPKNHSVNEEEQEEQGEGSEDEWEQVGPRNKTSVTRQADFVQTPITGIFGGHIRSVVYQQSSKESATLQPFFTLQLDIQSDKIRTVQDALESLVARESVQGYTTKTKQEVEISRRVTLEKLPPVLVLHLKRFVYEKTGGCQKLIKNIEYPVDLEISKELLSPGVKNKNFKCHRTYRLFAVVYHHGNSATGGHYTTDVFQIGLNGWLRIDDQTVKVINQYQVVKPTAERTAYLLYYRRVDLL
# log2 ratio of Biotin-Ahx-Ub-VS probe labelling values compiled below

compound_structure=Cc1nc(-c2cccc(NC(=O)CCl)c2)cs1 result="-0.202 (inactive)"
compound_structure=CN(C)C(=O)c1ccc(NC(=O)CCl)cc1 result="-0.0447 (inactive)"

(Q) Identify measured log2 ratio of Biotin-Ahx-Ub-VS probe labelling associated with `Cc1ccc(CN(CCO)C(=O)CCl)cc1`
(A) -0.0725 (inactive)

(Q) For the compound `Cc1ccc(-c2nnc(C)[nH]2)c(NC(=O)CCl)c1` , give its reported log2 ratio of Biotin-Ahx-Ub-VS probe labelling.
(A) 0.0193 (inactive)

(Q) For the compound `Cc1conc1C1CN(C(=O)CCl)C1` , give its measured log2 ratio of Biotin-Ahx-Ub-VS probe labelling value.
(A) -0.254 (inactive)

(Q) Please give measured log2 ratio of Biotin-Ahx-Ub-VS probe labelling of the following entry: `O=C(CCl)N1CCC(C(=O)N2CCCC2)CC1`
(A) -0.257 (inactive)

(Q) For the compound `O=C(CCl)Nc1cc2c(cc1Cl)OCCCO2` , report log2 ratio of Biotin-Ahx-Ub-VS probe labelling.
(A) -0.157 (inactive)

* * *

Listed compounds paired with reported log2 ratio of Biotin-Ahx-Ub-VS probe labelling
target: UniProt Q9P2H5; test: log2 ratio of Biotin-Ahx-Ub-VS probe labelling (fragment/DMSO); higher = less target engagement (more negative = stronger competition), active = hit call of the paper (q ≤ 0.05, log2 ratio ≤ -1); settings: compound concentration: 200 uM; treatment time: 3 h
Sequence (Q9P2H5 whole entry, the tested form may be a part): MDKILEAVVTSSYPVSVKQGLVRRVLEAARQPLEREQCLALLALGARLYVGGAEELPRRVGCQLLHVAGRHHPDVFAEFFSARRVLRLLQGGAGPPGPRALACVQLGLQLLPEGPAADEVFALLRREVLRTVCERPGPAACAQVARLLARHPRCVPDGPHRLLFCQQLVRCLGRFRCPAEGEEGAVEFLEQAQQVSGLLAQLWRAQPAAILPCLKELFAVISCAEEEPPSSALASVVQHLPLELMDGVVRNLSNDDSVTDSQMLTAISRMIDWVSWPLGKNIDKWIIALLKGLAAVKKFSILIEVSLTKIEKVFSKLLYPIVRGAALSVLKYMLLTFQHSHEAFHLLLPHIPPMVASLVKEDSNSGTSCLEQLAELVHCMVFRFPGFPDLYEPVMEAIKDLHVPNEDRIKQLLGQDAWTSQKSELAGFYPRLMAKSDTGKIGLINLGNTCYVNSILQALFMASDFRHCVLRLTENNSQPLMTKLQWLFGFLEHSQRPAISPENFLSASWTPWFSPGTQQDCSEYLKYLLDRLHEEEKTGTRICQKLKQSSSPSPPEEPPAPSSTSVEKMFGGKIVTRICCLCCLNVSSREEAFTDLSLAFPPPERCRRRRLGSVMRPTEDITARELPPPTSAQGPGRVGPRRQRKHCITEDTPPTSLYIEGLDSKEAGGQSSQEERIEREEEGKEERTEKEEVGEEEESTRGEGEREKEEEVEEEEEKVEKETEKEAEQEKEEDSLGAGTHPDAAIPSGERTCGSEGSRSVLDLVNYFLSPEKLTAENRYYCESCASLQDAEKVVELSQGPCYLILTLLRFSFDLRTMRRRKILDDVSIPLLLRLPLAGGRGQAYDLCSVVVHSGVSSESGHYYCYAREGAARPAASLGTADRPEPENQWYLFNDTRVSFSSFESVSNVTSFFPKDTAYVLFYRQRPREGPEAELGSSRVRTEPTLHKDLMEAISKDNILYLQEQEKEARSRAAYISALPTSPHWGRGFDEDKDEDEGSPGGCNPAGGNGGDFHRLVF
Keep the answer to the number alone.

Examples from the recorded data:
compound=Cn1cc(CN(Cc2ccc(Cl)cc2)C(=O)CCl)cn1 measured_number=-0.065
compound=COc1ccc(-c2csc(NC(=O)CCl)n2)cc1 measured_number=-0.528
compound=Cl.O=C(CCl)NCCc1ncc(F)cc1F measured_number=-0.675
compound=N#Cc1cnn(-c2ccccc2)c1NC(=O)CCl measured_number=-0.407
compound="Cl.Cn1nccc1C(NC(=O)CCl)c1ccccc1 (centres undefined)" measured_number=-0.154
compound="CC(NC(=O)CCl)c1cnn(C2CC2)c1 (centres undefined)" measured_number=-0.0606
compound=O=C(CCl)NCC1(c2ccccc2)CC1 measured_number=-0.071
compound="CCC1c2ccsc2CCN1C(=O)CCl (centres undefined)" measured_number=-0.118

(Q) # return log2 ratio of Biotin-Ahx-Ub-VS probe labelling of O=C(CCl)N1CCc2nc[nH]c2C1c1ccc(Cl)cc1 (centres undefined) (system: UniProt Q9P2H5)
(A) -0.000874

(Q) Would you please give the reported log2 ratio of Biotin-Ahx-Ub-VS probe labelling of `Cc1cccn2cc(CCNC(=O)CCl)nc12.Cl` with UniProt Q9P2H5?
(A) -0.379

(Q) Give UniProt Q9P2H5 log2 ratio of Biotin-Ahx-Ub-VS probe labelling for the following compound: NC(=O)C1CCCN(C(=O)CCl)C1 (centres undefined)
(A) -0.0803

(Q) Output reported log2 ratio of Biotin-Ahx-Ub-VS probe labelling of the compound O=C(CCl)NC(Cn1ccccc1=O)c1ccccc1 (centres undefined) on UniProt Q9P2H5.
(A) 0.148

(Q) Would you please give the reported log2 ratio of Biotin-Ahx-Ub-VS probe labelling of `Cl.O=C(CN1CCN(C(=O)CCl)CC1)Nc1ccc(F)cc1` with UniProt Q9P2H5?
(A) -0.164

(Q) Quote UniProt Q9P2H5 log2 ratio of Biotin-Ahx-Ub-VS probe labelling for entry O=C(CCl)N1CCC(O)(Cc2ccc(F)cc2)C1 (centres undefined) .
(A) 0.0413

(Q) Please tell me the measured log2 ratio of Biotin-Ahx-Ub-VS probe labelling for `Cc1ccc(C(=O)NCCNC(=O)CCl)cc1` ; system: UniProt Q9P2H5.
(A) -0.35

* * *

Target: USP47 (UniProt Q96K76)
Sequence (whole entry): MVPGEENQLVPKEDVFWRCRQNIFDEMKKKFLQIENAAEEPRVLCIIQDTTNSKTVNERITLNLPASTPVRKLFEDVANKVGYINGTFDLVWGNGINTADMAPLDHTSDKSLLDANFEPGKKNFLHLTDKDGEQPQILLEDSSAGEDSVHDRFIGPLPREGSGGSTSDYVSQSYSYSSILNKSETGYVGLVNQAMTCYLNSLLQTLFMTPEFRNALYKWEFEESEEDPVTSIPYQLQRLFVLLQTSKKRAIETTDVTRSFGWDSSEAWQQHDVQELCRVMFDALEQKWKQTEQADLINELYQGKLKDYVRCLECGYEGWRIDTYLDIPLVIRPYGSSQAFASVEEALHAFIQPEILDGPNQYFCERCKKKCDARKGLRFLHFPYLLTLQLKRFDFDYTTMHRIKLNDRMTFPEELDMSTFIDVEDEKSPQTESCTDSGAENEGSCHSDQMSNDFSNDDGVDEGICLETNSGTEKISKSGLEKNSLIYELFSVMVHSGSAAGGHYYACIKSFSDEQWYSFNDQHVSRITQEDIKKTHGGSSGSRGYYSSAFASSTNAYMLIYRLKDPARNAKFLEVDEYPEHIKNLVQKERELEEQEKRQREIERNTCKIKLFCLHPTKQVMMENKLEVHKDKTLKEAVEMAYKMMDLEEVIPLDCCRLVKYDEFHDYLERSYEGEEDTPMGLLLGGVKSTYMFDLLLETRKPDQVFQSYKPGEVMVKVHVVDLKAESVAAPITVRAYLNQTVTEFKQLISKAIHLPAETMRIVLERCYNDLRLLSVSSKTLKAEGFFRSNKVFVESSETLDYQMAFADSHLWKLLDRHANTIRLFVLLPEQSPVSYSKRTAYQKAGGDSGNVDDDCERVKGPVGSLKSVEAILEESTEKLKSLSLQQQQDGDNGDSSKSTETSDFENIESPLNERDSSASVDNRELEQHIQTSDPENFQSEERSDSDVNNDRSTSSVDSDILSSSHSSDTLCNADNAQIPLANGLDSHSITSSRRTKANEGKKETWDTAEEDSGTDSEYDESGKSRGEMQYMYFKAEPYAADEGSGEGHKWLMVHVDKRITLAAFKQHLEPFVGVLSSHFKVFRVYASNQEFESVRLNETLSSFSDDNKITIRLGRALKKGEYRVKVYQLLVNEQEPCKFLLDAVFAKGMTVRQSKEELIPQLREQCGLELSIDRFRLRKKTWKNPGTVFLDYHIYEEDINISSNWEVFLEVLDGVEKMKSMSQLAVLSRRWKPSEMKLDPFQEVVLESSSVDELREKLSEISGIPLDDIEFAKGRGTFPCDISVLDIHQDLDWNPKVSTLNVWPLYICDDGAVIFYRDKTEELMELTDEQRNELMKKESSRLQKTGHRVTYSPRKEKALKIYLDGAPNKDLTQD
Assay: log2 ratio of Biotin-Ahx-Ub-VS probe labelling (fragment/DMSO); higher = less target engagement (more negative = stronger competition), active = hit call of the paper (q ≤ 0.05, log2 ratio ≤ -1)
Conditions: compound concentration: 200 uM; treatment time: 3 h
attribute.measured: log2 ratio of Biotin-Ahx-Ub-VS probe labelling
Would you mind answering with just the numeric figure?

Example cases with answers are listed next.
compound=Cl.O=C(CCl)N1CCc2ncncc2C1 measured_number=-0.409
compound="O=C(CCl)N1CCCC1c1ccsc1 (stereo not drawn)" measured_number=-0.389

Let us move to another entry and its log2 ratio of Biotin-Ahx-Ub-VS probe labelling.
(Q) Give recorded log2 ratio of Biotin-Ahx-Ub-VS probe labelling. `O=C(CCl)N1CCC(c2nc3ccccc3o2)CC1`
(A) -0.397

* * *

molecular target: OTUD6B (UniProt Q8N6M0); test: log2 ratio of Biotin-Ahx-Ub-VS probe labelling (fragment/DMSO); higher = less target engagement (more negative = stronger competition), active = hit call of the paper (q ≤ 0.05, log2 ratio ≤ -1); conditions: compound concentration: 200 uM; treatment time: 3 h
Sequence (Q8N6M0 whole entry, the tested form may be a part): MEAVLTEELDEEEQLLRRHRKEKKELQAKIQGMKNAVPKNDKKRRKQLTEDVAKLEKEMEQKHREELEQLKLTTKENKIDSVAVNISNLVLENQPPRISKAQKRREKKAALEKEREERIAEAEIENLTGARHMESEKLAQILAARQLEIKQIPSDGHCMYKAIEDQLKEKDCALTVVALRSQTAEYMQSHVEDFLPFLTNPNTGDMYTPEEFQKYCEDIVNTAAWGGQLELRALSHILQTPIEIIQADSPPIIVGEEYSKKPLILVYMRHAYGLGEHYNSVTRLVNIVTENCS
attribute.measured: log2 ratio of Biotin-Ahx-Ub-VS probe labelling
Give the value as a plain number.

compound=O=C(CCl)NC1(c2ccc3c(c2)OCCO3)CCCC1 measured_number=-0.0936

(Q) Return log2 ratio of Biotin-Ahx-Ub-VS probe labelling (reported value) for this compound: Cl.Cn1nccc1C(NC(=O)CCl)c1ccccc1 (stereo not given)
(A) -0.147

(Q) Give a short answer stating reported log2 ratio of Biotin-Ahx-Ub-VS probe labelling for `Cl.O=C(CCl)N1CCc2ncncc2C1` .
(A) -0.0834

(Q) Give me measured log2 ratio of Biotin-Ahx-Ub-VS probe labelling, please, for this compound: CC(NC(=O)CCl)c1csc(-c2ccccc2)n1.Cl (stereo not given)
(A) -0.597

(Q) Kindly indicate its recorded log2 ratio of Biotin-Ahx-Ub-VS probe labelling. Item: `Cl.O=C(CCl)NCc1cc2c(nc1O)CCCC2`
(A) -0.123
